The reported numbers originate from patent US3981865A.

Test system: Proteus vulgaris 3027
Test: MIC by plate method, standard strains
Assay type: cell-based
Conditions: Heart infusion agar pH 7.4, inoculum 10^4 cells per plate (10^6 cells/ml.), unit assumed
Method: The minimum inhibitory concentration (MIC) was determined by the plate method disclosed in "Chemotherapy" (Japan), Vol. 16, (1968), pages 98 - 99. The culture medium used was a Heart infusion agar (pH 7.4). The number of the cells per plate used in the inoculum was 10^4 (10^6 cells/ml.).
quantity kind: MIC Proteus vulgaris 3027

INSERT INTO results (molecule, quantity_kind, result) VALUES
  ('CC1(C)S[C@@H]2[C@H](NC(=O)[C@H](NC(=O)NC(=O)CCCCCCCCCCC(=O)NC(=O)N[C@@H](C(=O)N[C@@H]3C(=O)N4[C@@H]3SC(C)(C)[C@@H]4C(=O)O)c3ccccc3)c3ccccc3)C(=O)N2[C@H]1C(=O)O', 'MIC Proteus vulgaris 3027', '100 µg/mL'),
  ('CC1(C)S[C@@H]2[C@H](NC(=O)[C@H](NC(=O)NC(=O)c3ccc(C(=O)NC(=O)N[C@@H](C(=O)N[C@@H]4C(=O)N5[C@@H]4SC(C)(C)[C@@H]5C(=O)O)c4ccccc4)cc3)c3ccccc3)C(=O)N2[C@H]1C(=O)O', 'MIC Proteus vulgaris 3027', '25 µg/mL'),
  ('CC1(C)S[C@@H]2[C@H](NC(=O)[C@H](N)c3ccccc3)C(=O)N2[C@H]1C(=O)O [Sodium Ampicillin, reference compound]', 'MIC Proteus vulgaris 3027', '> 200 µg/mL'),
  ('CC1(C)S[C@@H]2[C@H](NC(=O)[C@H](NC(=O)NC(=O)CCCCCCCCCCCC(=O)NC(=O)N[C@@H](C(=O)N[C@@H]3C(=O)N4[C@@H]3SC(C)(C)[C@@H]4C(=O)O)c3ccccc3)c3ccccc3)C(=O)N2[C@H]1C(=O)O', 'MIC Proteus vulgaris 3027', '25 µg/mL'),
  ('CC1(C)S[C@@H]2[C@H](NC(=O)[C@H](NC(=O)NC(=O)c3ccc4cc(C(=O)NC(=O)N[C@@H](C(=O)N[C@@H]5C(=O)N6[C@@H]5SC(C)(C)[C@@H]6C(=O)O)c5ccccc5)ccc4c3)c3ccccc3)C(=O)N2[C@H]1C(=O)O', 'MIC Proteus vulgaris 3027', '3.15 µg/mL'),
  ('CC1(C)S[C@@H]2[C@H](NC(=O)[C@H](NC(=O)NC(=O)CCC(=O)NC(=O)N[C@@H](C(=O)N[C@@H]3C(=O)N4[C@@H]3SC(C)(C)[C@@H]4C(=O)O)c3ccccc3)c3ccccc3)C(=O)N2[C@H]1C(=O)O', 'MIC Proteus vulgaris 3027', '12.5 µg/mL'),
  ('CC1(C)S[C@@H]2[C@H](NC(=O)[C@H](NC(=O)NC(=O)c3ccc(CCc4ccc(C(=O)NC(=O)N[C@@H](C(=O)N[C@@H]5C(=O)N6[C@@H]5SC(C)(C)[C@@H]6C(=O)O)c5ccccc5)cc4)cc3)c3ccccc3)C(=O)N2[C@H]1C(=O)O', 'MIC Proteus vulgaris 3027', '6.25 µg/mL'),
  ('CC1(C)S[C@@H]2[C@H](NC(=O)[C@H](NC(=O)NC(=O)CCCCCCCCC(=O)NC(=O)N[C@@H](C(=O)N[C@@H]3C(=O)N4[C@@H]3SC(C)(C)[C@@H]4C(=O)O)c3ccccc3)c3ccccc3)C(=O)N2[C@H]1C(=O)O', 'MIC Proteus vulgaris 3027', '25 µg/mL'),
  ('CC1(C)S[C@@H]2[C@H](NC(=O)[C@H](NC(=O)NC(=O)c3ccc(C(=O)c4ccc(C(=O)NC(=O)N[C@@H](C(=O)N[C@@H]5C(=O)N6[C@@H]5SC(C)(C)[C@@H]6C(=O)O)c5ccccc5)cc4)cc3)c3ccccc3)C(=O)N2[C@H]1C(=O)O', 'MIC Proteus vulgaris 3027', '12.5 µg/mL'),
  ('CC1(C)S[C@@H]2[C@H](NC(=O)[C@H](NC(=O)NC(=O)COc3ccc(OCC(=O)NC(=O)N[C@@H](C(=O)N[C@@H]4C(=O)N5[C@@H]4SC(C)(C)[C@@H]5C(=O)O)c4ccccc4)cc3)c3ccccc3)C(=O)N2[C@H]1C(=O)O', 'MIC Proteus vulgaris 3027', '12.5 µg/mL');

====

System: β-lactamase from Pseudomonas aeruginosa GN 238
Test: Resistant activity against β-lactamase, iodometric assay
Assay type: biochemical
Settings: β-lactamase hydrolysis, relative to Potassium Penicillin G = 100
Readings of Relative activity (%) Pseudomonas aeruginosa GN238 for the listed compounds
quantity kind: Relative activity (%) Pseudomonas aeruginosa GN238

INSERT INTO assay_data (compound, qualifying_sign, readout_number) VALUES
  ('CC1(C)S[C@@H]2[C@H](NC(=O)[C@H](NC(=O)NC(=O)CCCCCCCCC(=O)NC(=O)N[C@@H](C(=O)N[C@@H]3C(=O)N4[C@@H]3SC(C)(C)[C@@H]4C(=O)O)c3ccccc3)c3ccccc3)C(=O)N2[C@H]1C(=O)O [Compound No. 4]', '=', 12),
  ('CC1(C)S[C@@H]2[C@H](NC(=O)Cc3ccccc3)C(=O)N2[C@H]1C(=O)O [Potassium Penicillin G, reference compound]', '=', 100),
  ('CC1(C)S[C@@H]2[C@H](NC(=O)[C@H](NC(=O)NC(=O)CCC(=O)NC(=O)N[C@@H](C(=O)N[C@@H]3C(=O)N4[C@@H]3SC(C)(C)[C@@H]4C(=O)O)c3ccccc3)c3ccccc3)C(=O)N2[C@H]1C(=O)O [Compound No. 3]', '=', 5),
  ('CC1(C)S[C@@H]2[C@H](NC(=O)[C@H](NC(=O)NC(=O)CCCCCCCCCCCC(=O)NC(=O)N[C@@H](C(=O)N[C@@H]3C(=O)N4[C@@H]3SC(C)(C)[C@@H]4C(=O)O)c3ccccc3)c3ccccc3)C(=O)N2[C@H]1C(=O)O [Compound No. 6]', '<', 1),
  ('CC1(C)S[C@@H]2[C@H](NC(=O)[C@H](NC(=O)NC(=O)c3ccc(C(=O)NC(=O)N[C@@H](C(=O)N[C@@H]4C(=O)N5[C@@H]4SC(C)(C)[C@@H]5C(=O)O)c4ccccc4)cc3)c3ccccc3)C(=O)N2[C@H]1C(=O)O [Compound No. 1]', '=', 18);

====

Experiment: Acute toxicity LD50 i.v. in mouse
Conditions: in vivo, iv; i.v. in mouse having a weight of 19 ± 1 g.
quantity kind: LD50

INSERT INTO measurements (smiles_string, result) VALUES
  ('CC1(C)S[C@@H]2[C@H](NC(=O)[C@H](NC(=O)NC(=O)CCC(=O)NC(=O)N[C@@H](C(=O)N[C@@H]3C(=O)N4[C@@H]3SC(C)(C)[C@@H]4C(=O)O)c3ccccc3)c3ccccc3)C(=O)N2[C@H]1C(=O)O', '> 3000 mg/kg');
